Origin of the recorded values: paper PMC4914250

Tested on: mutp53 in BT549 cell extract
method: ELISA of mutp53 conformation, BT549;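 note: 0 means no effect and 6 means as or more effective than positive control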
Format: biochemical, human
condition: score 0-6 compared to positive control
endpoint: Conform BT549
Answers are plain numbers.

Check out these entries, answers already filled in.
myr-RRKHNKHRPEPDSDER [pCAP-221] = 3
myr-RRIRDPRILLLHFD [pCAP-325] = 3
myr-RRKILFIRLMHNKH [pCAP-227, myristoylated peptide, similarity to GAS2] = 4
IRGRIIRRRRRRRRR [pCAP-54R, pCAP-54 with poly arginine tail] = 2

Moving on to another substance below.
Problem: Write down the reported Conform BT549 (system: mutp53 in BT549 cell extract) of EVTFRHSVV [pCAP-1, randomly selected peptide used as inert comparison]
Result: 1
